This collection of values is drawn from paper PMC5540273.

System: EPHB2
Details: concentration: 1 μM, replicates: in singlicate; n = 1;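 note: KINOMEscan kinase panel screen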
Assignment: determine reported %Inh for the given molecules.
Give just the number in %; leave the unit off.

Qu. Which measured %Inh value corresponds to "CS(=O)(=O)CCNCc1nc(-c2ccc3ncnc(Nc4ccc(OCc5cccc(F)c5)c(Cl)c4)c3c2)cs1.Cl" ?
Ans. 0

Qu. How about this molecule: O=C(Nc1ccccc1F)NC1CCN(c2ccnc(Nc3ccc(F)cc3)n2)C1 (centres unmarked)
Ans. 0

Qu. How about this molecule: "CCc1nc(-c2cccc(N(C)S(=O)(=O)c3ccccc3)c2)c(-c2ccnc(Nc3ccc(N4CCN(C(C)=O)CC4)nc3)n2)s1"
Ans. 0

Qu. How about this molecule: "COc1ccc(-c2nc3n(c2-c2ccncc2)CCC3)cc1"
Ans. 0

Qu. How about this molecule: "COc1ccc(NC(=O)c2ccc(-c3cc(-c4nnc(C)o4)ccc3C)cc2)cc1"
Ans. 10

Qu. How about this molecule: "Cc1cc(N2CCC(NS(=O)(=O)c3ccc(F)cc3)CC2)nc(Nc2cccc(C#N)c2)n1.O=C(O)C(F)(F)F"
Ans. 0

Qu. How about this molecule: "O=C(NCCCN1CCCC1=O)c1cnc(NCc2cc(Cl)ccc2Cl)nc1NC1CCNCC1"
Ans. 0

Qu. How about this molecule: "CC(C)N1CCC(n2cnc(-c3ccc(F)cc3)c2-c2ccnc(N)n2)CC1"
Ans. 32

Qu. How about this molecule: "Fc1ccc(-c2ncn(CCCNCc3ccccc3)c2-c2ccncc2)cc1"
Ans. 14

Qu. How about this molecule: "Cn1cc(-c2ccc3c(c2)CCN3C(=O)Cc2cccc(C(F)(F)F)c2)c2c(N)ncnc21"
Ans. 0

Qu. How about this molecule: "CCc1nc(-c2cccc(C)c2)c(-c2ccnc(NC(=O)c3ccccc3)c2)s1"
Ans. 4

Qu. How about this molecule: "Nc1n[nH]c2nnc(-c3ccccc3)cc12"
Ans. 80

Qu. How about this molecule: "FC(F)(F)c1ccc(-c2nn3ncccc3c2-c2ccnc(Nc3cccc(C(F)(F)F)c3)n2)cc1"
Ans. 1

Qu. How about this molecule: "O=C(CCO)NCCn1ccc2ncnc(Nc3ccc(Oc4cccc(C(F)(F)F)c4)c(Cl)c3)c21"
Ans. 0

Qu. How about this molecule: "Fc1cccc(COc2ccc(Nc3ncnc4cc[nH]c34)cc2Cl)c1"
Ans. 20

Qu. How about this molecule: CCCc1ccc(S(=O)(=O)NC2CCN(c3ccnc(Nc4ccc(OC)cc4)n3)C2)cc1 (centres unmarked)
Ans. 10

Qu. How about this molecule: "COc1ccc(NC(=O)Nc2ccc(C)c(-c3ccc(C(=O)Nc4ccncc4)cc3)c2)cc1"
Ans. 12

* * *

Test system: YES
Construct: gene YES1
Conditions: concentration: 1 μM, replicates: in singlicate; n = 1
Assignment: determine reported %Inh for the given molecules.
Give just the number in %; leave the unit off.

Qu. Which measured %Inh value corresponds to "CC(=O)Nc1n[nH]c2ncc(-c3ccccc3)cc12" ?
Ans. 0

Qu. How about this molecule: "Cn1ccc2ncnc(Nc3ccc(Oc4cccc(Cl)c4)c(Cl)c3)c21"
Ans. 0

Qu. How about this molecule: "Fc1cccc(COc2ccc(Nc3ncnc4nn5ccccc5c34)cc2Cl)c1"
Ans. 13

Qu. How about this molecule: "CSc1nn2c(=O)cc(N3CCOCC3)nc2n1Cc1cccc(Cl)c1Cl"
Ans. 31

Qu. How about this molecule: "Nc1nc(-c2ccc3c(N)n[nH]c3c2)cc(N2CCC[C@@H](C(=O)Nc3ccccc3)C2)n1.O=C(O)C(F)(F)F.O=C(O)C(F)(F)F"
Ans. 0

Qu. How about this molecule: "Nc1nc(-c2cccnc2)c(-c2ccnc3ccccc23)s1"
Ans. 18

Qu. How about this molecule: "N#Cc1ccc(Oc2ccc(Nc3ncnc4cc[nH]c34)cc2Cl)cc1"
Ans. 0

Qu. How about this molecule: "CN1c2ccc(-c3ccc(C(=O)NCCO)cc3)cc2-c2[nH]ncc2S1(=O)=O"
Ans. 12

Qu. How about this molecule: "O=c1cc(N2CCOCC2)nc2n(Cc3cccc(Cl)c3)ccn12"
Ans. 23

Qu. How about this molecule: "Fc1ccc(Nc2nccc(-c3c(-c4ccc(Cl)cc4)nn4ncccc34)n2)cc1F"
Ans. 0

Qu. How about this molecule: "FC(F)(F)c1cc(Nc2nccc(-c3c(-c4ccc(Cl)cc4)nn4ncccc34)n2)ccc1Cl"
Ans. 0

Qu. How about this molecule: "Cl.Cn1ccc(-c2cccc(Nc3ccnc4cc(-c5nccs5)ccc34)c2)n1"
Ans. 21

Qu. How about this molecule: "FC(F)(F)c1ccc(-c2nn3ncccc3c2-c2ccnc(Nc3cccc(C(F)(F)F)c3)n2)cc1"
Ans. 0

Qu. How about this molecule: "COc1ccc(-c2nc3n(c2-c2ccncc2)CCC3)cc1"
Ans. 0

Qu. How about this molecule: "CCc1nc(-c2cccc(C)c2)c(-c2ccnc(NC(=O)c3ccccc3)c2)s1"
Ans. 19

Qu. How about this molecule: "CCC(CC)(CC)n1cnc2c(N)ncnc21"
Ans. 0

Qu. How about this molecule: "Nc1nc(-c2ccc3c(N)n[nH]c3c2)cc(N2CCCCC2)n1"
Ans. 0

Qu. How about this molecule: "COC(=O)c1cccc(NC(=O)NCCNc2ccnc(Nc3ccc(F)cc3)n2)c1"
Ans. 14

Qu. How about this molecule: COc1ccc(Nc2nccc(N3CCC(NC(=O)Nc4ccc5c(c4)OCO5)C3)n2)cc1 (stereo not shown)
Ans. 0

* * *

Assignment: determine reported %Inh for the given molecules.
Tested on: p38-delta
Conditions: concentration: 1 μM, replicates: in singlicate; n = 1
Give just the number in %; leave the unit off.

Qu. Which measured %Inh value corresponds to "O=C(CCO)NCCn1ccc2ncnc(Nc3ccc(Oc4cccc(C(F)(F)F)c4)c(Cl)c3)c21" ?
Ans. 10

Qu. How about this molecule: CCc1nc(-c2cccc(N(C)S(=O)(=O)c3ccccc3)c2)c(-c2ccnc(Nc3ccc(N4CCN(C(C)=O)CC4)nc3)n2)s1 [GSK1645895]
Ans. 7

Qu. How about this molecule: COc1ccc(Nc2nccc(N3CCC(NC(=O)c4cccc(NC(C)=O)c4)C3)n2)cc1 (stereo not drawn) [GSK1379732]
Ans. 22

Qu. How about this molecule: Oc1ccc2ncnc(Nc3ccc(OCc4ccccc4)cc3)c2c1 [GI262866]
Ans. 36

Qu. How about this molecule: "O=C(NCCCN1CCCC1=O)c1cnc(NCc2cc(Cl)ccc2Cl)nc1NC1CCNCC1"
Ans. 42

Qu. How about this molecule: CCn1c(-c2ccncc2)nc2cnccc21 [SB-735216]
Ans. 4

Qu. How about this molecule: Clc1cccc(-c2nc(Nc3ccncc3)c3ccccc3n2)c1 [GW873004]
Ans. 17

Qu. How about this molecule: CN1CCC(n2cnc(-c3ccc(F)cc3)c2-c2ccnc(NC3CCNCC3)n2)CC1 [SB-229482]
Ans. 38

Qu. How about this molecule: Clc1ccc(-c2cc(-c3c[nH]nc3-c3ccccn3)ccn2)cc1 [GW681251]
Ans. 25

* * *

Tested on: EPHA7
Conditions: concentration: 1 μM, replicates: in singlicate; n = 1
endpoint_label: %Inh

Qu. Which measured %Inh value corresponds to COc1ccc(NC(=O)Nc2ccc(C)c(-c3ccc(C(=O)Nc4ccncc4)cc3)c2)cc1 [GSK1398475] ?
Ans. 4%

Qu. How about this molecule: Cn1cc(-c2ccc3c(c2)CCN3C(=O)Cc2cccc(C(F)(F)F)c2)c2c(N)ncnc21 [GSK2606414]
Ans. 4%

Qu. How about this molecule: Nc1nc(-c2ccc3c(N)n[nH]c3c2)cc(N2CCCCC2)n1 [GSK2228768]
Ans. 0%

Qu. How about this molecule: COc1cc2c(Nc3cccc(NC(=O)c4ccccc4)c3)ncnc2cc1OCCCN1CCOCC1 [GSK223810]
Ans. 3%

Qu. How about this molecule: CNc1nccc(-c2c(-c3ccc(F)cc3)ncn2CCCN2CCOCC2)n1 [SB-222516]
Ans. 21%

Qu. How about this molecule: "Fc1ccc(-c2ncn(CCCNCc3ccccc3)c2-c2ccncc2)cc1"
Ans. 0%

Qu. How about this molecule: FC(F)(F)c1ccc(-c2cc(-c3c[nH]nc3-c3ccccn3)ccn2)cc1 [GW599550]
Ans. 5%

Qu. How about this molecule: COc1ccc(-c2oc3ncnc(N)c3c2-c2ccc(OC)cc2)cc1 [SB-589132]
Ans. 0%

Qu. How about this molecule: "O=C(NCCCN1CCCC1=O)c1cnc(NCc2cc(Cl)ccc2Cl)nc1NC1CCNCC1"
Ans. 0%

Qu. How about this molecule: Cc1ccc(C)c(NC(=O)NCCNc2ccnc(Nc3ccc(F)cc3)n2)c1 [GSK1379878]
Ans. 0%

Qu. How about this molecule: O=C(c1ccc(-c2cc(-c3c[nH]nc3-c3ccccn3)ccn2)cc1)N1CCCC1 [GW792479]
Ans. 9%

Qu. How about this molecule: CS(=O)(=O)CCNCc1nc(-c2ccc3ncnc(Nc4ccc(OCc5cccc(F)c5)c(Cl)c4)c3c2)cs1.Cl [GW583340]
Ans. 0%

Qu. How about this molecule: Clc1ccc(-c2cc(-c3c[nH]nc3-c3ccccn3)ccn2)cc1 [GW681251]
Ans. 0%

Qu. How about this molecule: "Fc1cccc(COc2ccc(Nc3ncnc4cc[nH]c34)cc2Cl)c1"
Ans. 4%

Qu. How about this molecule: Fc1ccc(Nc2nccc(-c3c(-c4ccc(Cl)cc4)nn4ncccc34)n2)cc1F [GW829058]
Ans. 8%

Qu. How about this molecule: Fc1cccc(COc2ccc(Nc3ncnc4sc(-c5ccc[nH]5)cc34)cc2Cl)c1 [GW707818]
Ans. 0%

Qu. How about this molecule: CCCc1ccc(S(=O)(=O)NC2CCN(c3ccnc(Nc4ccc(OC)cc4)n3)C2)cc1 (stereo not shown) [GSK1379737]
Ans. 0%

Qu. How about this molecule: "O=C(Nc1ccccc1)Nc1ccc(Oc2ccc3nccn3n2)cc1"
Ans. 3%

Qu. How about this molecule: "CCc1nc(-c2cccc(C)c2)c(-c2ccnc(NC(=O)c3ccccc3)c2)s1"
Ans. 12%
